experiment: Solubility in distilled water; format: physicochemical; settings: distilled water, water, Solubility, 30° C.
RECORDED_ENDPOINT: solubility

COMPOUND: OC[C@H]1O[C@H](OC[C@H]2OC(O)(CO)[C@@H](O)[C@@H]2O)[C@H](O)[C@@H](O)[C@@H]1O (some centres unmarked)
READING: 320 mg/mL

Proceeding to the next compound to report its solubility.
q: Given the compound `OC[C@H]1O[C@@](CO)(O[C@H]2O[C@H](CO)[C@@H](O)[C@H](O)[C@H]2O)[C@@H](O)[C@@H]1O` , what is its reported solubility?
a: 680 mg/mL
